Ref: BigSolDB 2.1

Settings: in ethyl acetate, 293.15 K
Observed property: solubility (mole fraction)
Give bare numbers.

Which value of solubility (mole fraction) has been reported for "O=C(O)c1ccc(Cl)cc1Cl" in the records?
0.0395

###

Details: in isobutanol, 283.15 K
Observed property: solubility (mole fraction)
One number for each entry.

Reported solubility (mole fraction), compound "O=C(O)c1ccc(Cl)cc1Cl" : ____
0.0326

###

Details: in toluene, 283.15 K
Observed property: solubility (mole fraction)
Answers are plain numbers.

May I ask what solubility (mole fraction) has been recorded for "O=C(O)c1ccc(Cl)cc1Cl" ?
0.0022

###

Settings: in isopropanol, 303.15 K
Observed property: solubility (mole fraction)
Numbers only.

Item under review: "O=C(O)c1ccc(Cl)cc1Cl" . Reported solubility (mole fraction)?
0.0699
